Test system: A431
Assay: filipin (cholesterol) integrated intensity within LBPA endosomes, Z-score; higher = more cholesterol in LBPA endosomes
Conditions: compound concentration in added solution (µM; 5 µl added to 20 µl cells): 10; 18 h
Structures can show the parent of a compound that is named as a salt.
For each of the molecules below, state its filipin (z-score).
Give bare numbers.

molecule="C[N+](C)(C)CCCCCC[N+](C)(C)C [Hexamethonium dibromide dihydrate]" assay_metric="filipin (z-score)" value_measured=-0.514
molecule="O=C(CCCN1CCC(O)(c2ccc(Cl)cc2)CC1)c1ccc(F)cc1 [Haloperidol]" assay_metric="filipin (z-score)" value_measured=2.42

# per-item lookup of filipin (z-score); items listed below
1. O=C1c2ccccc2C(=O)C1c1ccccc1 [Phenindione]
2. CC1(C)S[C@@H]2[C@H](NC(=O)Cc3ccccc3)C(=O)N2[C@H]1C(=O)O [Benzathine benzylpenicillin]
3. C[C@H](CCC(=O)O)[C@H]1CC[C@H]2[C@@H]3C(=O)C[C@@H]4CC(=O)CC[C@]4(C)[C@H]3CC(=O)[C@]12C [Dehydrocholic acid]
4. NCCCC(O)(P(=O)(O)O)P(=O)(O)O [Alendronate sodium]

# output
1: -0.498; 2: -0.376; 3: -0.549; 4: -0.56

# per-item lookup of filipin (z-score); items listed below
1. Cc1ccccc1C(OCCN(C)C)c1ccccc1 (stereo not drawn) [Orphenadrine hydrochloride]
2. O=C1c2c(O)cccc2Cc2cccc(O)c21 [Anthralin]
3. CCN(CC)CCNC(=O)c1cc(Br)c(N)cc1OC [Bromopride]
4. CCC1(c2ccccc2)NC(=O)N(C)C1=O (stereo not drawn) [Mephenytoin]
5. Cc1ccc2c(c1)c1c3n2CCNC3CCC1 (stereo not drawn) [Pirlindole mesylate]
6. Cc1c(OCC(F)(F)F)ccnc1C[S+]([O-])c1nc2ccccc2[nH]1 (stereo not drawn) [Lansoprazole]
7. C#CCN(C)CCCOc1ccc(Cl)cc1Cl [Clorgyline hydrochloride]
8. O=C(O)CN(CCN(CC(=O)O)CC(=O)O)CCN(CC(=O)O)CC(=O)O [Pentetic acid]

# output
0.191
-0.334
-0.333
-0.496
0.437
-0.31
-0.435
-0.443

# per-item lookup of filipin (z-score); items listed below
1. CC(C)[C@H](N)C(=O)OCCOCn1cnc2c(=O)nc(N)[nH]c21 [Valacyclovir hydrochloride]
2. CS(=O)(=O)Nc1ccc([N+](=O)[O-])cc1Oc1ccccc1 [Nimesulide]
3. Cc1ccc(N(CC2=NCCN2)c2cccc(O)c2)cc1 [Phentolamine hydrochloride]
4. CC(C(=O)O)c1ccc(C(=O)c2ccccc2)s1 (stereo not drawn) [Tiaprofenic acid]

# output
1. -0.459
2. -0.551
3. -0.477
4. -0.443

# per-item lookup of filipin (z-score); items listed below
1. OCCN1C[C@H](O)[C@@H](O)[C@H](O)[C@H]1CO [Miglitol]
2. C[C@H](CCC(=O)O)[C@H]1CC[C@H]2[C@@H]3[C@@H](O)C[C@@H]4C[C@H](O)CC[C@]4(C)[C@H]3CC[C@]12C [Urosiol]
3. CC(=O)OCC(=O)[C@@]12OC3(CCCC3)O[C@@H]1C[C@H]1[C@@H]3CCC4=CC(=O)C=C[C@]4(C)[C@@]3(F)[C@@H](O)C[C@@]12C [Amcinonide]
4. Cc1ccc(-c2ncc(Cl)cc2-c2ccc(S(C)(=O)=O)cc2)cn1 [Etoricoxib]
5. CCCCCCCN(CC)CCCC(O)c1ccc(NS(C)(=O)=O)cc1 (stereo not drawn) [Ibutilide fumarate]
6. Cn1c(=O)c2nc[nH]c2n(C)c1=O [Theophylline monohydrate]
7. COc1cnc(NS(=O)(=O)c2ccc(N)cc2)nc1 [Sulfameter]
8. NC[C@H]1O[C@H](O[C@H]2[C@H](O)[C@@H](O[C@H]3O[C@H](CO)[C@@H](O)[C@H](N)[C@H]3O)[C@H](N)C[C@@H]2N)[C@H](N)C[C@@H]1O [Tobramycin]

# output
1: -0.487; 2: -0.433; 3: -0.0127; 4: -0.543; 5: 0.22; 6: -0.57; 7: -0.447; 8: -0.528

# per-item lookup of filipin (z-score); items listed below
1. OC(CCN1CCCCC1)(c1ccccc1)c1ccccc1 [Pridinol methanesulfonate salt]
2. CCN(CC)CCOC(=O)C1(c2ccc([N+](=O)[O-])cc2)CCCC1 [Nitrocaramiphen hydrochloride]

# output
1: -0.23; 2: -0.346
